Test system: MDA-MB-468 breast
Experimental details: NCI-60 one-dose screen, 48 h
Settings: 10 µM unless noted
The panel holds about 83,000 compounds, 20% with a hit somewhere; the sample as a whole holds those more often. Calls of active or inactive are those of the source. How the source made its calls: active means growth percent below 10; inactive means the rest.
// classify into active, inactive

Past entries and their recorded results:
### Prompt For this molecule, state the assay outcome: COc1cc(/C=C\c2cc(OC)c(OC)c(OC)c2)cc(N/C=C\C(=O)c2ccc(OC(F)(F)F)cc2)c1OC
### Response inactive

### Prompt Hi team, can someone confirm the assay call for COc1cc(OC)c(S(=O)(=O)N(CCCl)CCCl)cc1C(=O)/C=C/c1ccc(C)cc1 ?
### Response inactive

---
### Prompt Short answer needed: outcome of this test for ClCc1ccc(Cl)c(Cl)c1 ?
### Response inactive

### Prompt # fetch the recorded call for c1ccc2c(c1)O[As](O[As]1Oc3ccccc3O1)O2 here
### Response inactive

### Prompt I'd appreciate the recorded outcome for CC(=O)[O][Hg][c]1c(N)c(C)cc(C)c1F from this test.
### Response active

### Prompt Recorded call for CSc1ccccc1NP1(=O)OCC(C)([N+](=O)[O-])CO1 (stereo unspecified) ?
### Response inactive

----------
Tested on: HL-60(TB) leukemia
Experimental details: NCI-60 one-dose screen, 48 h
Settings: 10 µM unless noted
The panel holds about 83,000 compounds, 20% with a hit somewhere; the sample as a whole holds those more often. The source made the active and inactive calls. How the source made its calls: active means growth percent below 10; inactive means the rest.
Form entry, call: pick from active, inactive

### Prompt Status in this test for COc1cc(/C=C/C(=O)c2ccccc2)ccc1Oc1nc(Nc2ccc(F)cc2)nc(N(C)C)n1 ?
### Response inactive

More entries:
### Prompt For this molecule, state the assay outcome: COc1cc(OC(F)(F)F)ccc1C(=O)Nc1sc2c(c1C#N)CCC(=O)C2
### Response inactive

### Prompt Which outcome did this test record for the molecule C#CCOc1cc(N(CC)CC)ccc1C(C(=O)NC(C)(C)C)N(C(=O)C1CCc2cc(F)ccc2O1)c1ccc(F)cc1F (configuration not stated) ?
### Response active

### Prompt Can you look up the reported call for O=C(/C=C/c1ccc(Cl)cc1Cl)c1nc2ccccc2n1Cc1ccc(Br)cc1 for me?
### Response inactive

### Prompt Please let me know the test result on file for c1n[nH]cc1-c1nc2ccc3cn[nH]c3c2c2c1CCCC2 .
### Response inactive

### Prompt Test call for this molecule, please: O=C(Cn1c(-c2ccccc2)nc2ccccc21)N=Nc1c(O)[nH]c2ccc(Br)cc12
### Response inactive

### Prompt Please let me know the test result on file for CC(C)(C)c1ccc(NCc2cn(-c3ccc(C(=O)O)cc3)nc2-c2ccc(C#N)cc2)cc1 .
### Response active

### Prompt Recorded test call requested for Cn1cc(-c2cc(N)n3nc(-c4c[nH]c5ccccc45)cc3n2)c2ccccc21
### Response active

### Prompt Any idea what this test logged for Cn1cc(NC(=O)c2cc(NC(=O)c3ccc(/C=C/c4ccccc4)cc3)cn2C)cc1C(=O)NCCCN1CCOCC1 ?
### Response active

### Prompt Recorded call for CC(=O)Nc1ccc(-n2cnc3cc(-c4ccc(O)cc4)ccc32)cc1C(F)(F)F ?
### Response active

### Prompt Assay outcome for CN(C)c1ccnc(NCCCSC(c2ccccc2)(c2ccccc2)c2ccccc2)c1 : what was it?
### Response active

### Prompt Hi, do you know how O=C(CSc1nnc(-c2ccc3nc(-c4ccccc4)[nH]c3c2)o1)Nc1ccc(Cl)cc1 came out in this test?
### Response inactive

### Prompt What is the recorded call for this molecule in the test? COC1=C[C@]23CCC(=O)N2CCc2cc4c(cc2[C@@H]3[C@@H]1OC(=O)CCCC(C)C)OCO4
### Response active

----------
Tested on: RXF 393 renal
Experimental details: NCI-60 one-dose screen, 48 h
Settings: 10 µM
Experimental: Cells are grown in 96 well plates and exposed to the test compound for 48 hours. Compounds are tested at a single concentration, which is 10^-5 M for most compounds. The reported endpoint is percent growth (GI% or GIPRCNT), where numbers from 0 - 100% represent growth inhibition, and numbers from -100% - 0 represent cell death. For example, a value of 40 represents 60% growth inhibition. A value of 0 means no net growth occurred over the course of the experiment. […]
The panel holds about 83,000 compounds, 20% with a hit somewhere; the sample as a whole holds those more often. Activity calls are given as the source filed them. The calls were made as follows: active = growth percent below 10; inactive = the rest.
Give one outcome, nothing more. List: active, inactive

### Prompt Which outcome was entered for the molecule O=C([Se]C1C=CCCC1)c1ccc(C(=O)[Se]C2C=CCCC2)s1 (centres undefined) in this test?
### Response active

### Prompt Called result for C[C@H]1[C@H](OC(=O)CCC(=O)N(CCCc2cn(-c3ccc(CN4CCOCC4)cc3)nn2)CCNc2ccnc3cc(Cl)ccc23)O[C@@H]2OC3(C)CC[C@H]4[C@H](C)CC[C@@H]1[C@@]24OO3
### Response active

### Prompt Per the records of this test, what outcome belongs to CCC[Se]C(=O)c1ccc(C(=O)[Se]CCC)s1 ?
### Response active

### Prompt Each molecule tested received a call. Report the one for O=C(/C=C/c1ccc(F)cc1)c1nc2ccccc2n1Cc1ccc(F)cc1 .
### Response active

### Prompt State the result this test recorded for CC1=C(CCC=O)C2=C(C)C3(CC3)[C@@](C)(O)C(=O)C2=C1 .
### Response active

### Prompt Would you mind telling me which call this test gave CN(C)CCc1cn(C2CCC2)c2cccc(O)c12 ?
### Response inactive

Next:
### Prompt What outcome does the record of this test show for O=C(/C=C/c1cccc(Br)c1)c1nc2ccccc2n1Cc1ccc(F)cc1 ?
### Response active

### Prompt Give the logged outcome of this assay for the following molecule: O=C(/C=C/c1ccccc1)c1nc2ccccc2n1Cc1ccc(Br)cc1
### Response active

### Prompt # lookup: test call for COc1cc(OC)c(/C=C/C(=O)c2nc3ccccc3n2Cc2ccc(F)cc2)c(OC)c1
### Response inactive

### Prompt Hey, what did the test say about O=C(/C=C/c1ccc(Cl)cc1)c1nc2ccccc2n1Cc1ccc(Br)cc1 ?
### Response inactive

### Prompt Short answer needed: outcome of this test for C#CC[Se]C(=O)c1ccc2n[se]nc2c1 ?
### Response inactive

### Prompt Please let me know the test result on file for CC12CCC3(CCC(=O)NCCCNc4ccnc5cc(Cl)ccc45)[C@@](C)(OO[C@]3(C)O1)O2 .
### Response active

### Prompt I'd appreciate the recorded outcome for O=C(NCCCCC(c1ccc(F)cc1)c1ccc(F)cc1)Nc1ccc([N+](=O)[O-])c(C(F)(F)F)c1 from this test.
### Response active

### Prompt Dear colleague, could you share the recorded outcome for O=C(NC([Se])=NC1CCCCC1)c1ccccc1 when you have a moment?
### Response inactive

----------
Test system: KM12 colon
Experimental details: NCI-60 one-dose screen, 48 h (100 = growth as untreated, 0 = no growth, -100 = all killed)
Settings: 10 µM
This is part of a sample that, as a whole, favours compounds with a hit. Of some 83,000 tested, about 20% had one in any assay.
Observation type: growth (%)
Express the result in % but write the number alone.

Example entries and their recorded answers appear below.
### Prompt Query the reported growth for KM12 colon; item: CC(=O)Oc1ccccc1C(=O)NC([Se])=NC1CCCCC1
### Response 5.47

### Prompt I'm curious: which growth was measured for CC1=C(CCC=O)C2=C(C)C3(CC3)[C@@](C)(O)C(=O)C2=C1 tested on KM12 colon?
### Response -72.9

// switching to the query compound
### Prompt Find the measured growth: item Cc1c2oc3c(C)ccc(C(=O)N[C@@H]4C(=O)N[C@H](C(C)C)C(=O)N5CCC[C@H]5C(=O)N(C)CC(=O)N(C)[C@@H](C(C)C)C(=O)OC4C)c3nc-2c(C(=O)N[C@@H]2C(=O)N[C@H](C(C)C)C(=O)N3CC(=O)C[C@H]3C(=O)N(C)CC(=O)N(C)[C@@H](C(C)C)C(=O)OC2C)c(N)c1=O (stereo partly drawn) , target or system KM12 colon.
### Response 2.23

----------
Test system: HL-60(TB) leukemia
Experimental details: NCI-60 one-dose screen, 48 h
Settings: 10 µM unless noted
This is part of a sample that, as a whole, favours compounds with a hit. Of some 83,000 tested, about 20% had one in any assay. Active and inactive are the calls of the source. How the source made its calls: active means growth percent below 10; inactive means the rest.
Select the matching outcome among 1 for active, -1 for inactive

### Prompt Dear all, I need the recorded test outcome for CCN(CC)c1ccc(/C=N/Nc2nc(-c3ccc(Br)cc3)cs2)c(O)c1 , thank you.
### Response -1

### Prompt What outcome does the record of this test show for CN(C)c1ccc(/C=C/c2n(Cc3ccc4ccccc4c3)c3ccccc3[n+]2Cc2ccc3ccccc3c2)cc1 ?
### Response 1

### Prompt How did this test come out for CCOC(=O)/C=C/c1cccc2c1C(=O)NC(C)(c1cc3cc(Cl)ccc3oc1=O)N2 (centres undefined) ?
### Response 1

### Prompt Give the logged outcome of this assay for the following compound: ClC(Cn1ncc2c(Nc3cccc(Br)c3)nc(SCCN3CCOCC3)nc21)c1ccc(Br)cc1 (centres undefined)
### Response 1

### Prompt For O=C(c1ccc(Cl)cc1)C1[C@H](c2ccccc2Br)[C@@H](c2ccccc2)NC12C(=O)Nc1ccccc12 (some centres undefined) , which call appears in the assay record?
### Response 1

### Prompt Tell me the assay call for COc1ccsc1/C=N/NC(=O)c1[nH]c2ccc(Br)cc2c1-c1ccccc1 please.
### Response 1

### Prompt Called result for O=C(Nc1ccc(Br)cc1)Nc1ccc(-c2ccc3c(c2)NC(=O)/C3=C\c2ccc[nH]2)cc1
### Response -1

### Prompt Record request — test call for CC(=O)Nc1cccc(Nc2nc(N[C@H]3CCCc4ccccc43)c3ccccc3n2)c1
### Response -1

### Prompt Identify the outcome logged in this assay for the compound shown: COc1ccc(NC(=O)c2sc3nc(C(C)C)ccc3c2N)cc1
### Response -1
